melting point by entry:

These recorded examples may help you get a feel for the data.
Compound | melting point
CC1(C)C(=O)N(Cc2ccc(Cl)cc2Cl)C(=O)N1CCCCCN1CCN(c2ccccc2)CC1.Cl | 218 to 220 °C
Cc1ccc(N2CCN(CC(O)CN3C(=O)N(Cc4ccc(Cl)cc4Cl)C(=O)C3(C)C)CC2)cc1C.Cl (stereo not shown) | 217 to 219 °C
CC1(C)C(=O)N(Cc2ccc(Cl)cc2Cl)C(=O)N1CCCN1CCN(c2cccc(Cl)c2Cl)CC1.Cl | 185 to 187 °C

From here, focus on the item given below.
Prompt line: Item "CC1(C)C(=O)N(Cc2ccc(Cl)cc2Cl)C(=O)N1CCCCCCN1CCN(c2ccc(Cl)c(Cl)c2)CC1.Cl" has what recorded melting point?
Response line: 154 to 156 °C

* * *

IC50 values, listed per item
# Target or test system: human adrenergic receptor α1B (Homo sapiens)
# Sequence (P35368 1-520): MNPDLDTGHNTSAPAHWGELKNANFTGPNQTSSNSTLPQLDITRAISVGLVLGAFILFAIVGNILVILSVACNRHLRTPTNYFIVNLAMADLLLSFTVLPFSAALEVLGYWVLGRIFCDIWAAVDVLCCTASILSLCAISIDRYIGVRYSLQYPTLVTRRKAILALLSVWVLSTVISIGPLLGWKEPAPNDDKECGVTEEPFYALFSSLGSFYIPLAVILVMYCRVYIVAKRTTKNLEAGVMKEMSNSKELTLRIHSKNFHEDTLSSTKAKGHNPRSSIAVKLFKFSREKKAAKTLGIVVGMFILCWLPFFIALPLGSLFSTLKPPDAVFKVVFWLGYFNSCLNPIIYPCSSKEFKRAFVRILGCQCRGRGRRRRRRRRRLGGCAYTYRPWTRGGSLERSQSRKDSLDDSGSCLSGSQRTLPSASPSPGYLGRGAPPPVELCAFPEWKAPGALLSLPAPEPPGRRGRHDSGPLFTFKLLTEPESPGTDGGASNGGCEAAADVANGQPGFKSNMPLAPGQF
# Assay remarks: Intrinsic activity, aequorin luminescence functional assay at α1B-AR
# Measurement context: cells expressing aequorin and human α1B; against phenylephrine; means of three independent experiments in duplicates
Answer in nM, number only, no unit symbol.

Molecule | Quantity kind | Experimental value
CC1(C)C(=O)N(Cc2ccc(Cl)cc2Cl)C(=O)N1CC(O)CN1CCN(c2ccccc2F)CC1 (stereo not drawn) | IC50 | 484
CC1(C)C(=O)N(Cc2ccc(Cl)cc2Cl)C(=O)N1CC(O)CN1CCN(c2ccc(F)cc2)CC1 (stereo not drawn) | IC50 | 170

Shifting focus to the molecule that follows.
Prompt line: Find the recorded IC50 belonging to CC1(C)C(=O)N(Cc2ccc(Cl)cc2Cl)C(=O)N1CC(O)CN1CCN(c2ccccc2C#N)CC1.Cl (stereo not drawn) and report it.
Response line: 359

* * *

# Tested on: arterial blood pressure of normotensive Wistar rats
# Assay remarks: Influence on blood pressure in normotensive anesthetized rats after i.v. administration
# Assay type: in vivo, rat
# Measurement context: 2.0 mg/kg i.v., 5 min, mean, n = 6
Entries and their Systolic blood pressure
Output spec: single numeric token, no unit.

Compound | Target or test system | Quantity kind | Experimental value
Cc1ccc(N2CCN(CC(O)CN3C(=O)N(Cc4ccc(Cl)cc4Cl)C(=O)C3(C)C)CC2)cc1C.Cl (stereo not shown) [Compound 12] | arterial blood pressure of normotensive Wistar rats | Systolic blood pressure | 134.7
COc1ccccc1N1CCN(CC(O)CN2C(=O)N(Cc3ccc(Cl)cc3Cl)C(=O)C2(C)C)CC1.Cl (stereo not shown) [Compound 13] | arterial blood pressure of normotensive Wistar rats | Systolic blood pressure | 102.8
CC1(C)C(=O)N(Cc2ccc(Cl)cc2Cl)C(=O)N1CC(O)CN1CCN(c2ccc(F)cc2F)CC1 (stereo not shown) [Compound 9] | arterial blood pressure of normotensive Wistar rats | Systolic blood pressure | 133.3
CC1(C)C(=O)N(Cc2ccc(Cl)cc2Cl)C(=O)N1CC(O)CN1CCN(c2ccccc2)CC1.Cl (stereo not shown) [Compound 6] | arterial blood pressure of normotensive Wistar rats | Systolic blood pressure | 124.2
CC1(C)C(=O)N(Cc2ccc(Cl)cc2Cl)C(=O)N1CCCCCN1CCN(c2ccccc2)CC1.Cl [Compound 3] | arterial blood pressure of normotensive Wistar rats | Systolic blood pressure | 123.3
CC1(C)C(=O)N(Cc2ccc(Cl)cc2Cl)C(=O)N1CCCN1CCN(c2cccc(Cl)c2Cl)CC1.Cl [Compound 2] | arterial blood pressure of normotensive Wistar rats | Systolic blood pressure | 126.7

Now turn to the next compound.
Prompt line: Which measured Systolic blood pressure value corresponds to COc1ccccc1N1CCN(CCCN2C(=O)N(Cc3ccc(Cl)cc3Cl)C(=O)C2(C)C)CC1.Cl [Compound 1] ?
Response line: 120.3
